Reference for the values: ChEMBL document CHEMBL4321846

RUN_DESCRIPTION: Half life in po dosed dog
Assay type: ADME, organism-based, Canis lupus familiaris
STATED_CONDITIONS: in vivo
RECORDED_METRIC: half-life
Include the unit after the number when you answer.

Task item: Dear colleague, I am looking for the recorded half-life of the following compound: COC[C@H]1Cn2cc(-c3nc(Nc4ccnn4C)ncc3C)nc2C(=O)N1Cc1ccc(F)c(F)c1 [TIZATERKIB]
Reply: 5 h

---

STUDY_TARGET: Cyclin-dependent kinase 5/CDK5 activator 1 (Homo sapiens)
Sequence (Q00535 whole entry): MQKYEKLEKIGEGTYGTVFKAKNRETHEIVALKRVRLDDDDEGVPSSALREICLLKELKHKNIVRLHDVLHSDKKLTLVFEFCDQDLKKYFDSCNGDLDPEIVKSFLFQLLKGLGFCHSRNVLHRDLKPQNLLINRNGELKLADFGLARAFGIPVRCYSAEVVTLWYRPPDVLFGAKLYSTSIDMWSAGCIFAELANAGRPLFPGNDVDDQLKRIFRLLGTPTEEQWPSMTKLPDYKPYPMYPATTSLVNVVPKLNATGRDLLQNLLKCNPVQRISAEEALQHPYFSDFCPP
Sequence (Q15078 whole entry, further chain): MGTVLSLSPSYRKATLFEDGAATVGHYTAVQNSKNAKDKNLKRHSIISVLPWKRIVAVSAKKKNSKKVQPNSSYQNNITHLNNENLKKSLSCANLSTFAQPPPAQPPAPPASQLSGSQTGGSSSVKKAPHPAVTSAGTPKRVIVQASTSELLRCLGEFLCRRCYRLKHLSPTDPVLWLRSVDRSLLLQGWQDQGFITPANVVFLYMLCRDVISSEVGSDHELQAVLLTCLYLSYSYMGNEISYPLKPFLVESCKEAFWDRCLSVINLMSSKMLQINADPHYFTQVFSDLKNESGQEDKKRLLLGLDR
RUN_DESCRIPTION: Inhibition of recombinant full length human GST/His-tagged CDK5/p25 expressed in baculovirus expression system
RECORDED_METRIC: pIC50
Entry type: numeric. Quantity: pIC50, the -log10 of concentration in molar units.

Task item: Returns the measured pIC50 for the input compound. Input: "COC[C@H]1Cn2cc(-c3nc(Nc4ccnn4C)ncc3C)nc2C(=O)N1Cc1ccc(F)c(F)c1"
Reply: 6.52

---

STUDY_TARGET: Mitogen-activated protein kinase 1 (Homo sapiens)
RECORDED_METRIC: T1/2 (min)
Just the number please, in min, no unit attached.

// worked examples, T1/2 included
{"COMPOUND": "CC(C)Nc1cc(-c2c[nH]c(C(=O)N[C@H](CO)c3cccc(Cl)c3)c2)c(Cl)cn1", "STUDY_TARGET": "Mitogen-activated protein kinase 1 (Homo sapiens)", "RECORDED_METRIC": "T1/2", "ASSAY_VALUE": 35}
{"COMPOUND": "O=C(Nc1ccc2[nH]nc(-c3ccncc3)c2c1)[C@@H]1CCN(CC(=O)N2CCN(c3ccc(-c4ncccn4)cc3)CC2)C1", "STUDY_TARGET": "Mitogen-activated protein kinase 1 (Homo sapiens)", "RECORDED_METRIC": "T1/2", "ASSAY_VALUE": 127}
{"COMPOUND": "COC[C@H]1Cn2cc(-c3nc(Nc4ccnn4C)ncc3C)nc2C(=O)N1Cc1ccc(F)c(F)c1 [TIZATERKIB]", "STUDY_TARGET": "Mitogen-activated protein kinase 1 (Homo sapiens)", "RECORDED_METRIC": "T1/2", "ASSAY_VALUE": 277}

Task item: Fill in the recorded T1/2 for this compound, with Mitogen-activated protein kinase 1 (Homo sapiens) as test system: "Cc1cccc(CN2C(=O)c3cc(-c4nc(Nc5ccnn5C)ncc4C)cn3C[C@H]2C)n1"
Reply: 37

Task item: # repeat for "Cn1nccc1Nc1nccc(-c2ccn([C@H](CO)c3ccc(Cl)c(F)c3)c(=O)c2)n1"
Reply: 0.8

---

STUDY_TARGET: Cyclin-dependent kinase 2/cyclin E1 (Homo sapiens)
RUN_DESCRIPTION: Inhibition of human full length C-terminal His6-tagged Cdk2/human full length N-terminal GST-tagged Cyclin E expressed in baculovirus infected Sf21 insect cells after 1 hr by electromobility shift assay
RECORDED_METRIC: IC50 (µM)
// return numeric value only (unit: µM, not printed)

Task item: Quick one: IC50 for "COC[C@H]1Cn2cc(-c3nc(Nc4ccnn4C)ncc3C)nc2C(=O)N1Cc1ccc(F)c(F)c1" ?
Reply: 1

---

STUDY_TARGET: Mitogen-activated protein kinase; ERK1/ERK2 (Homo sapiens, UniProt P27361+P28482)
RUN_DESCRIPTION: Inhibition of ERK1/2 in human A375 cells assessed as inhibition of ERK phosphorylation after 2 hrs
Assay type: cell-based
Label MET when IC50 is strictly below 5 nM; otherwise label NOT MET.

Reference set, count: 5
{"SMILES_REPRESENTATION": "Cc1cnc(Nc2ccnn2C)nc1-c1cn2c(n1)C(=O)N(Cc1ccc(F)c(F)c1)CC2", "QUALITATIVE_LABEL": "NOT MET"}
{"SMILES_REPRESENTATION": "Cc1cnc(Nc2ccnn2C)nc1-c1cn2c(n1)C(=O)N(Cc1cccc(Cl)c1)CC2", "QUALITATIVE_LABEL": "MET"}
{"SMILES_REPRESENTATION": "COC[C@H]1Cn2cc(-c3nc(Nc4ccnn4C)ncc3C)nc2C(=O)N1Cc1ccc(F)c(F)c1", "QUALITATIVE_LABEL": "MET"}
{"SMILES_REPRESENTATION": "COC[C@H]1Cn2cc(-c3nc(Nc4ccnn4C)ncc3C)cc2C(=O)N1Cc1cccc(C)n1", "QUALITATIVE_LABEL": "NOT MET"}
{"SMILES_REPRESENTATION": "Cc1cnc(Nc2ccnn2C)nc1-c1cc2n(c1)CCN(Cc1cccc(Cl)c1)C2=O", "QUALITATIVE_LABEL": "NOT MET"}

Continue with the molecule presented below.
Task item: Hello, I'm reviewing records and need to know if IC50 of "Cc1cnc(Nc2ccnn2C)nc1-c1cn2c(n1)C(=O)N(Cc1ccc(F)c(F)c1)[C@@H](C)C2" is below 5 nM. Could you check?
Reply: MET

---

RUN_DESCRIPTION: Oral bioavailability in dog
Format: ADME, organism-based, Canis lupus familiaris
STATED_CONDITIONS: in vivo
RECORDED_METRIC: bioavailability (%)
Return type: number; implicit unit %.

Task item: Consider the molecule COC[C@H]1Cn2cc(-c3nc(Nc4ccnn4C)ncc3C)nc2C(=O)N1Cc1ccc(F)c(F)c1 [TIZATERKIB] and give its measured bioavailability.
Reply: 100

---

STUDY_TARGET: Mitogen-activated protein kinase 1 (Homo sapiens, UniProt P28482)
Sequence (P28482 whole entry): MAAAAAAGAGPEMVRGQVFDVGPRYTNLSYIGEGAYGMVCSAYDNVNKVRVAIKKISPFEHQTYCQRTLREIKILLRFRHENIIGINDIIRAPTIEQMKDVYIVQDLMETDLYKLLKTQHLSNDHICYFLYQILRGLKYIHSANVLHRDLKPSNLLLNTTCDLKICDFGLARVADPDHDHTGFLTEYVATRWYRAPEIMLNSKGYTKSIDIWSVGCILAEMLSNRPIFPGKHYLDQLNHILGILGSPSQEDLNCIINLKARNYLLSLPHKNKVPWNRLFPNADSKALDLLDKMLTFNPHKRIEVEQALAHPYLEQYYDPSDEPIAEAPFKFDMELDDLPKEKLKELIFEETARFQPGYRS
RUN_DESCRIPTION: Binding affinity to MEK-activated phosphorylated biotinylated ERK2 (unknown origin) by SPR analysis
RECORDED_METRIC: pKd
In simple prose, pKd is minus the logarithm base ten of a concentration in moles per litre.

Task item: Query the reported pKd for Mitogen-activated protein kinase 1 (Homo sapiens, UniProt P28482); item: "COC[C@H]1Cn2cc(-c3nc(Nc4ccnn4C)ncc3C)nc2C(=O)N1Cc1ccc(F)c(F)c1"
Reply: 10.30

---

RUN_DESCRIPTION: Fraction unbound in mouse plasma
Assay type: ADME, cell-free
RECORDED_METRIC: fraction unbound
Could you keep your reply to the number by itself?

Task item: What does the data say about its fraction unbound? Entry: "COC[C@H]1Cn2cc(-c3nc(Nc4ccnn4C)ncc3C)nc2C(=O)N1Cc1ccc(F)c(F)c1"
Reply: 0.12

---

RUN_DESCRIPTION: Fraction unbound in human plasma
Type: ADME, cell-free
RECORDED_METRIC: fraction unbound

Task item: What does the data say about its fraction unbound? Entry: "COC[C@H]1Cn2cc(-c3nc(Nc4ccnn4C)ncc3C)nc2C(=O)N1Cc1ccc(F)c(F)c1"
Reply: 0.06 to 0.27

---

RUN_DESCRIPTION: Volume of distribution at steady state in dog
Assay type: ADME, Canis lupus familiaris
STATED_CONDITIONS: in vivo, read-out: Vdss
RECORDED_METRIC: Vd (L/kg)
Give the value, in units of L/kg, as a plain number.

Task item: Recorded Vd of "COC[C@H]1Cn2cc(-c3nc(Nc4ccnn4C)ncc3C)nc2C(=O)N1Cc1ccc(F)c(F)c1" , please.
Reply: 1.2

---

Consider the following Ka values measured on Mitogen-activated protein kinase 1 (Homo sapiens).
Write the answer as a number in ×10⁻⁶ /M/s, unit excluded.

{"SMILES_REPRESENTATION": "Cn1nccc1Nc1nccc(-c2ccn([C@H](CO)c3ccc(Cl)c(F)c3)c(=O)c2)n1", "Ka [×10⁻⁶ /M/s]": 9.8}

Task item: Fill in: Ka of "Cc1cccc(CN2C(=O)c3cc(-c4nc(Nc5ccnn5C)ncc4C)cn3C[C@H]2C)n1" is ___
Reply: 1.9

Task item: Same thing, different molecule: "CC(C)Nc1cc(-c2c[nH]c(C(=O)N[C@H](CO)c3cccc(Cl)c3)c2)c(Cl)cn1"
Reply: 1.3

Task item: Same question for "O=C(Nc1ccc2[nH]nc(-c3ccncc3)c2c1)[C@@H]1CCN(CC(=O)N2CCN(c3ccc(-c4ncccn4)cc3)CC2)C1" please.
Reply: 1.3

---

STUDY_TARGET: Mitogen-activated protein kinase 1 (Homo sapiens)
Readings of T1/2 for the listed compounds
Answer with the number, then the unit.

Study these solved cases before continuing.
{"SMILES_REPRESENTATION": "COC[C@H]1Cn2cc(-c3nc(Nc4ccnn4C)ncc3C)nc2C(=O)N1Cc1ccc(F)c(F)c1", "T1/2": "194 min"}
{"SMILES_REPRESENTATION": "Cn1nccc1Nc1nccc(-c2ccn([C@H](CO)c3ccc(Cl)c(F)c3)c(=O)c2)n1", "T1/2": "1.2 min"}
{"SMILES_REPRESENTATION": "O=C(Nc1ccc2[nH]nc(-c3ccncc3)c2c1)[C@@H]1CCN(CC(=O)N2CCN(c3ccc(-c4ncccn4)cc3)CC2)C1", "T1/2": "291 min"}
{"SMILES_REPRESENTATION": "Cc1cccc(CN2C(=O)c3cc(-c4nc(Nc5ccnn5C)ncc4C)cn3C[C@H]2C)n1", "T1/2": "11.9 min"}

Next compound, please.
Task item: Need T1/2, item "CC(C)Nc1cc(-c2c[nH]c(C(=O)N[C@H](CO)c3cccc(Cl)c3)c2)c(Cl)cn1"
Reply: 2 min
